experiment: protein stability index of a GFP-peptide fusion (yeast GPS) (PSI 1-4); higher = more stable; sorted into four equal gates, so the index is relative within each strain; conditions: pdr5∆
readout: protein stability index
Just the number, please, no unit attached.

| seq | protein stability index |
| --- | --- |
| EKITQISLLCKNFKGIE [PCI8] | 2.55 |
| ININEFALPAGSPKSAT [CDC53] | 2.76 |
| ESNIKMTLEDNNVTSNP [SSN2] | 3.25 |

Per the record, RAGVCEYNEDSRLCTPI [RPN13] has protein stability index of 1.86

Per the record, NSLLTIVWRFISENTFP [RPC34] has protein stability index of 2.05

Per the record, KERIIRAFLIEEQKIVK [RPL34A] has protein stability index of 2.26

Per the record, CDEHMGLSLAGLAPDAR [PRE5] has protein stability index of 3.08

Per the record, SRLLDILEDYCYFRDFE [ISW2] has protein stability index of 1.42

Per the record, LKNYVLNELHPTLPTNH [PRP8] has protein stability index of 3.04

Per the record, PDYYMIIKYPVAFDNIN [SNF2] has protein stability index of 2.08
